Reference for the values: ChEMBL document CHEMBL1122439

# EXPERIMENTAL_SYSTEM: Histamine H2 receptor (Cavia porcellus)
# Sequence (P47747 whole entry): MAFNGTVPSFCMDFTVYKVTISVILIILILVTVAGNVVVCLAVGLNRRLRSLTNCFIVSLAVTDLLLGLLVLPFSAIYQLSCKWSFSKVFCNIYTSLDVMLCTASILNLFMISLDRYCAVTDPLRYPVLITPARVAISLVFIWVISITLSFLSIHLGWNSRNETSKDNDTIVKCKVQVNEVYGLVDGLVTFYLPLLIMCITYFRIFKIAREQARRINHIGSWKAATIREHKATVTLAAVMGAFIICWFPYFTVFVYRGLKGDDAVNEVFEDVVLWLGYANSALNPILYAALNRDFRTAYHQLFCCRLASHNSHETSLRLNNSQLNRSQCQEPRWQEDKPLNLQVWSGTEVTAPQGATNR
# ASSAY_COMMENT: Evaluated in vitro for Histamine H2 receptor inhibition using the dimaprit stimulated chronotropic response of the guinea pig atrium
QUANTITY_KIND: Ki (µM)

Some solved cases for reference:
# MOLECULE, QUANTITY_KIND, REPORTED_VALUE
data = [
    ("CNc1n[s+]([O-])nc1Nc1cccc(-c2csc(N=C(N)N)n2)c1 (stereo not drawn)", "Ki", 0.398),
    ("CN/C(=C/[N+](=O)[O-])Nc1cccc(-c2csc(N=C(N)N)n2)c1", "Ki", 0.2),
]

a. Cc1[nH]cnc1-c1cccc(Nc2n[s+]([O-])nc2N)c1 (stereo not drawn)
b. N=C(N)Nc1nc(-c2cccc(Nc3n[s+]([O-])nc3N)c2)cs1 (stereo not drawn)
So which one has the bigger Ki here, a or b ? Could you answer with the label of the item you picked?
a
(a: 0.794 µM, b: 0.316 µM)

a. CN/C(=C\[N+](=O)[O-])Nc1cccc(-c2[nH]cnc2C)c1
b. CN/C(=C\[N+](=O)[O-])Nc1ccc(-c2csc(N=C(N)N)n2)cc1
Identify the item whose Ki is the smaller number: a or b Could you answer with the label of the item you picked?
a
(a: 15.8 µM, b: 31.6 µM)

1. CNC(=NC#N)Nc1cccc(-c2nc[nH]c2C)c1
2. C/N=C(\NC#N)Nc1cccc(-c2csc(N=C(N)N)n2)c1
Identify the item whose Ki is the smaller number: 1 or 2 Could you answer with the label of the item you picked?
2
(2: 0.316 µM, 1: 39.8 µM)

* * *

# Test system: Canis familiaris
# ASSAY_COMMENT: % Inhibition of acid output in dogs at a dose of 10 mg/kg administered perorally
# Assay type: functional
# ASSAY_SETUP: Canis lupus familiaris, route oral
Recorded inhibition in vivo at 10 mg/kg by entry
Numeric answer only, unit % assumed.

Some solved cases for reference:
# COMPOUND, inhibition in vivo at 10 mg/kg / %
measured = [
    ("CNc1n[s+]([O-])nc1Nc1cccc(-c2csc(N=C(N)N)n2)c1 (centres undefined)", 21),
    ("N=C(N)Nc1nc(-c2cccc(Nc3n[s+]([O-])nc3N)c2)cs1 (centres undefined)", 31),
    ("C/N=C(\\NC#N)Nc1cccc(-c2csc(N=C(N)N)n2)c1", 73),
]

# context switch: different compound, same inhibition in vivo at 10 mg/kg
Under Canis familiaris: report inhibition in vivo at 10 mg/kg of CN/C(=C/[N+](=O)[O-])Nc1cccc(-c2csc(N=C(N)N)n2)c1 .
70

* * *

# ASSAY_COMMENT: pKa of urea component measured as proton lost reference pKa for the 3,4 diaminothiadiazole 1-oxide is ~11 in water
# Type: physicochemical
# ASSAY_SETUP: buffer
QUANTITY_KIND: pKa

# COMPOUND, QUANTITY_KIND, REPORTED_VALUE
rows = [
    ("CN/C(=C/[N+](=O)[O-])Nc1cccc(-c2csc(N=C(N)N)n2)c1", "pKa", 9.2),
    ("N=C(N)Nc1nc(-c2cccc(Nc3n[s+]([O-])nc3N)c2)cs1 (stereo not drawn)", "pKa", 8.9),
    ("CN/C(=C\\[N+](=O)[O-])Nc1ccc(-c2csc(N=C(N)N)n2)cc1", "pKa", 9.7),
]

* * *

# System: Canis familiaris
# ASSAY_COMMENT: % Inhibition of acid output in dogs at a dose of 5.0 mg/kg administered intravenously
# Format: functional
# ASSAY_SETUP: Canis lupus familiaris, route intravenous
QUANTITY_KIND: inhibition in vivo at 5 mg/kg (%)
Numeric answer only, unit % assumed.

Some solved cases for reference:
# COMPOUND, MEASUREMENT_UNITS, inhibition in vivo at 5 mg/kg
data = [
    ("Cc1[nH]cnc1-c1cccc(Nc2n[s+]([O-])nc2N)c1 (stereo not given)", "%", 5),
    ("CNC(=NC#N)Nc1cccc(-c2nc[nH]c2C)c1", "%", 48),
    ("C/N=C(\\NC#N)Nc1ccc(-c2[nH]cnc2C)cc1", "%", 0),
    ("C/N=C(\\NC#N)Nc1ccccc1-c1[nH]cnc1C", "%", 4),
]

# context switch: different compound, same inhibition in vivo at 5 mg/kg
# return recorded inhibition in vivo at 5 mg/kg for entry CN/C(=C\[N+](=O)[O-])Nc1cccc(-c2[nH]cnc2C)c1
28

* * *

# ASSAY_COMMENT: pKa of heterocyclic component measured as proton gained
# Type: physicochemical
QUANTITY_KIND: pKa

# COMPOUND, pKa
data = [
    ("CN/C(=C/[N+](=O)[O-])Nc1cccc(-c2csc(N=C(N)N)n2)c1", 6),
    ("CNC(=NCCSCc1csc(N=C(N)N)n1)NC#N", 7.1),
    ("CN/C(=N\\CCSCc1nc[nH]c1C)NC#N", 6.4),
    ("C/N=C(\\NC#N)Nc1cccc(-c2csc(N=C(N)N)n2)c1", 6.2),
    ("CN/C(=C\\[N+](=O)[O-])Nc1ccc(-c2csc(N=C(N)N)n2)cc1", 6.2),
    ("N=C(N)Nc1nc(-c2cccc(Nc3n[s+]([O-])nc3N)c2)cs1 (stereo unspecified)", 6.2),
]
